# Test system: NF-κB nuclear translocation in HUVECs
# Protocol: NF-κB nuclear translocation assay (high content imaging, p65 NUC/CYT)
# Assay type: cell-based, Human
# Assay Conditions: Homo sapiens, HUVEC; HUVECs, representative curve of three experiments, 4-parameter fit, dose response from 100μM; unit inferred; read-out: EC50 (Fig 8 dose response curve)
Measured Quantity: pEC50
Interpret pEC50 as the negative base-10 log of the concentration measured in mol/L.

| Compound | Value |
| --- | --- |
| CCOc1cc(C=C(C#N)c2nc(-c3ccc(OC)cc3)cs2)ccc1O | 5.51 |
| CCOC(=O)C(Cc1ccccc1)NC(=O)c1ccccc1 (stereo not drawn) | 5.09 |

## Task Using the record for N#Cc1c(Cl)nc(N2CCOCC2)c(Cl)c1Cl , report its pEC50.
## Result 5.68

* * *

# System: HepG2 human cell line
# Protocol: HepG2 cytotoxicity assay (CellTiter-Glo)
# Assay Conditions: HepG2 IC50 / HUVEC EC50
Measured Quantity: selectivity index (SI) = IC50/EC50
Give a plain numeric answer without units written out.

For orientation, consider the following solved cases.
| Molecule | Test System | selectivity index (SI) = IC50/EC50 |
| --- | --- | --- |
| Cc1cc(C)c2c(N)c(C(=O)c3ccc(Br)cc3)sc2n1 | HepG2 human cell line | 2.1 |
| O=C1C(=Cc2ccc(-c3ccc(Cl)cc3)o2)SC(=S)N1Cc1ccco1 | HepG2 human cell line | 7.1 |
| N#Cc1c(Cl)nc(N2CCOCC2)c(Cl)c1Cl | HepG2 human cell line | 7.4 |

## Task Using the record for COC(=O)C1=C(C)OC(N)=C(C#N)C1c1ccc(Cl)c(Cl)c1 (centres unmarked) , report its selectivity index (SI) = IC50/EC50.
## Result 6.1

* * *

# System: HepG2 human cell line
# Protocol: HepG2 cytotoxicity assay (CellTiter-Glo)
# Assay Conditions: HepG2 IC50 / HUVEC EC50
Measured Quantity: selectivity index (SI) = IC50/EC50
Give a plain numeric answer without units written out.

For orientation, consider the following solved cases.
| Compound | Measured Quantity | Value |
| --- | --- | --- |
| Oc1ccccc1/N=C/c1c(O)c(Br)cc2oc3c(c12)CCCC3 [IDR-0139144] | selectivity index (SI) = IC50/EC50 | 1.5 |
| Cc1nn(-c2ccccc2)c2c1C(c1ccc(Cl)c(Cl)c1)C(C#N)=C(N)O2 (stereo not shown) [IDR-0516961] | selectivity index (SI) = IC50/EC50 | 1.8 |
| CC(=NNc1nc(Cl)c(C#N)c(Cl)c1Cl)c1ccccn1 [IDR-0112703] | selectivity index (SI) = IC50/EC50 | 2.1 |

## Task Using the record for O=c1oc2ccccc2c2nn(Cc3ccccc3)nc12 [IDR-0131600] , report its selectivity index (SI) = IC50/EC50.
## Result 1.9

## Task Using the record for Nc1ccc2c(c1)Cc1cc([N+](=O)[O-])ccc1-2 [IDR-0113345] , report its selectivity index (SI) = IC50/EC50.
## Result 6.3

## Task Using the record for CCCCNCCCCOc1ccc2ccccc2c1 [IDR-0137875] , report its selectivity index (SI) = IC50/EC50.
## Result 1.1

## Task Using the record for COc1ccc(Br)cc1/C=C(\C#N)c1nc2ccc(C)cc2[nH]1 [IDR-0605188] , report its selectivity index (SI) = IC50/EC50.
## Result 3.6

## Task Using the record for Cc1cc(OCCCNCCO)cc(C)c1Cl [IDR-0137368] , report its selectivity index (SI) = IC50/EC50.
## Result 1.1

## Task Using the record for O=[N+]([O-])c1ccc(-c2nc(Cl)oc2-c2ccc([N+](=O)[O-])cc2)cc1 [IDR-0515158] , report its selectivity index (SI) = IC50/EC50.
## Result 33
